Cited source for all entries: patent US9345703B2

- PROTOCOL NOTES: Plasma protein binding, human
- Type: in vitro ADME
- RUN CONDITIONS: plasma; human, 10 μM; read-out: bound to plasma protein (converted)

- COMPOUND: "COc1ccc(N2CCN(CCCNC(=O)Cn3c(=O)c4cccn4c4c(C)ccnc43)CC2)cc1 [Compound 1{3}]"
  fraction unbound at 10 μM: 0.115

----------
- TESTED ON: Alpha1A (Homo sapiens)
- Sequence (P35348 whole entry): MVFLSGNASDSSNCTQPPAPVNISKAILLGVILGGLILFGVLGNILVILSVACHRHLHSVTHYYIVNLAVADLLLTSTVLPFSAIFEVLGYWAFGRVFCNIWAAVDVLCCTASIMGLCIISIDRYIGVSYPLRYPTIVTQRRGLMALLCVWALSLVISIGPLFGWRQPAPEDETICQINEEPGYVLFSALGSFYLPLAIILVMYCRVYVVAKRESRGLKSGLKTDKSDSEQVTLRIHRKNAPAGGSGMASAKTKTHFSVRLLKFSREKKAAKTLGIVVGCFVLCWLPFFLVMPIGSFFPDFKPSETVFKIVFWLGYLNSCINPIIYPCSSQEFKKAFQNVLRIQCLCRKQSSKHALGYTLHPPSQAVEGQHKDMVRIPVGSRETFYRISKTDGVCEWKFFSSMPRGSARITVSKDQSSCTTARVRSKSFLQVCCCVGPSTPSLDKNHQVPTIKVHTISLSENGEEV
- PROTOCOL NOTES: PDSP radioligand binding assay
- RUN CONDITIONS: Table 10

- COMPOUND: "Clc1ccc(CSc2nnc(-c3ccccn3)n2Cc2ccco2)cc1Cl [Compound 2{8}]"
  Ki: "> 10 µM"
